Catalogue of ABCB11 FC mRNA (5 μM ASO vs. untreated) readings, one per entry.
# System: human ABCB11 mRNA
# Assay Details: ASO treatment of primary human hepatocytes (PHH), ABCB11 mRNA by RT-qPCR normalized to B2M
# Type: cell-based
# Study Conditions: primary human hepatocytes, 5 μM ASO with PO-modifications, normalized to untreated hepatocytes
Strand notation (5' to 3'): a small letter for the sugar, then the base; units joined by * are phosphorothioate-linked, units joined directly phosphodiester-linked; [ ] holds rarer units or linkages, { } end groups; capitals alone tell only the bases. e = 2'-O-(2-methoxyethyl) (MOE); l = locked nucleic acid (LNA); [5mC] = 5-methylcytosine

{"Substance": "CO-11228 (antisense eG*eT*lG*eG*eAlG*e[5mC]*eA*lAeA*e[5mC]*lT*eAeG*lG*e[5mC]*eAl[5mC]*eT*eG)", "ABCB11 FC mRNA (5 μM ASO vs. untreated) (fold change)": 1.99}
{"Substance": "CO-11225 (antisense eG*eTlGeGeAlGe[5mC]*eA*lA*eA*e[5mC]*lT*eA*eGlGe[5mC]eAl[5mC]eT*eG)", "ABCB11 FC mRNA (5 μM ASO vs. untreated) (fold change)": 1.66}
{"Substance": "CO-12747 (antisense eG*eT*eGeAeGeGe[5mC]*eA*eT*e[5mC]*eA*eG*eG*eTeAeAeGeT*eT*e[5mC])", "ABCB11 FC mRNA (5 μM ASO vs. untreated) (fold change)": 0.97}
{"Substance": "CO-11222 (antisense eG*eT*lG*eG*eAlGe[5mC]*eA*lA*eA*e[5mC]*lT*eA*eGlGe[5mC]*eA*l[5mC]*eT*eG)", "ABCB11 FC mRNA (5 μM ASO vs. untreated) (fold change)": 1.79}
{"Substance": "CO-11232 (antisense eG*eT*lGeG*eAlG*e[5mC]eA*lAeA*e[5mC]lT*eAeG*lGe[5mC]*eAl[5mC]*eT*eG)", "ABCB11 FC mRNA (5 μM ASO vs. untreated) (fold change)": 1.72}
{"Substance": "CO-11211 (antisense eG*eT*lG*eGlAeGl[5mC]*eA*lA*eA*l[5mC]*eT*lA*eGlGe[5mC]lA*e[5mC]*eT*eG)", "ABCB11 FC mRNA (5 μM ASO vs. untreated) (fold change)": 2.80}
{"Substance": "CO-11203 (antisense eT*eG*eT*eTeT*eT*eG*e[5mC]eT*eT*eG*eGeT*e[5mC]*eA*eAeG*eA*eG*eG)", "ABCB11 FC mRNA (5 μM ASO vs. untreated) (fold change)": 1.38}
{"Substance": "CO-11229 (antisense eG*eTlG*eG*eA*lGe[5mC]*eA*lA*eAe[5mC]*lT*eA*eGlG*e[5mC]*eA*l[5mC]eT*eG)", "ABCB11 FC mRNA (5 μM ASO vs. untreated) (fold change)": 2.83}
{"Substance": "CO-12751 (antisense eG*eT*eG*eA*eGeG*e[5mC]*eA*eTe[5mC]*eA*eG*eGeT*eA*eA*eGeT*eT*e[5mC])", "ABCB11 FC mRNA (5 μM ASO vs. untreated) (fold change)": 0.93}
{"Substance": "CO-11221 (antisense eG*eTlG*eGlA*eGl[5mC]*eAlA*eAl[5mC]*eTlA*eGlG*e[5mC]lA*e[5mC]eT*eG)", "ABCB11 FC mRNA (5 μM ASO vs. untreated) (fold change)": 2.00}
{"Substance": "CO-11219 (antisense eG*eT*lGeG*lA*eGl[5mC]*eA*lAeA*l[5mC]*eTlA*eG*lGe[5mC]*lA*e[5mC]eT*eG)", "ABCB11 FC mRNA (5 μM ASO vs. untreated) (fold change)": 2.45}
{"Substance": "CO-11210 (antisense eG*eT*lG*eG*lAeGl[5mC]*eA*lA*eA*l[5mC]*eT*lA*eGlGe[5mC]*lA*e[5mC]*eT*eG)", "ABCB11 FC mRNA (5 μM ASO vs. untreated) (fold change)": 2.79}
{"Substance": "CO-11224 (antisense eG*eT*lGeGeAlGe[5mC]*eA*lA*eA*e[5mC]*lT*eA*eGlGe[5mC]eAl[5mC]*eT*eG)", "ABCB11 FC mRNA (5 μM ASO vs. untreated) (fold change)": 1.88}

* * *

Catalogue of ABCB11 mRNA FC (5 μM ASO vs. UNT) readings, one per entry.
# Tested on: human ABCB11 mRNA
# Assay Details: ASO treatment of primary human hepatocytes (PHH), ABCB11 mRNA by RT-qPCR normalized to B2M
# Format: cell-based
# Study Conditions: primary human hepatocytes, 5 μM ASO, normalized to untreated PHHs (UNT)
Strand notation (5' to 3'): a small letter for the sugar, then the base; units joined by * are phosphorothioate-linked, units joined directly phosphodiester-linked; [ ] holds rarer units or linkages, { } end groups; capitals alone tell only the bases. e = 2'-O-(2-methoxyethyl) (MOE); l = locked nucleic acid (LNA); [5mC] = 5-methylcytosine; d = 2'-deoxy (DNA)

{"Substance": "CO-7088 (eA*e[5mC]*e[5mC]*e[5mC]*e[5mC]*l[5mC]*d[5mC]*dT*l[5mC]*dA*d[5mC]*l[5mC]*dT*dT*lG*eG*eT*eT*e[5mC]*e[5mC]; antisense)", "Target Of Assay": "human ABCB11 mRNA", "Units": "fold change", "ABCB11 mRNA FC (5 μM ASO vs. UNT)": 1.177}
{"Substance": "CO-7167 (antisense eG*eG*e[5mC]*eG*eT*eT*eA*eT*eT*eA*eA*eT*eT*e[5mC]*eT*eA*e[5mC]*eA*eG*eA)", "Target Of Assay": "human ABCB11 mRNA", "Units": "fold change", "ABCB11 mRNA FC (5 μM ASO vs. UNT)": 1.403}
{"Substance": "CO-6977 (antisense eG*eG*eT*eA*eA*eG*eT*eT*e[5mC]*e[5mC]*eT*eG*eA*eA*eG*eT*eG*eG*eA*eG)", "Target Of Assay": "human ABCB11 mRNA", "Units": "fold change", "ABCB11 mRNA FC (5 μM ASO vs. UNT)": 1.15}
{"Substance": "CO-4521 (antisense eG*e[5mC]*eA*eT*eT*eT*e[5mC]*eA*eG*eA*eG*e[5mC]*eA*e[5mC]*eA*eG*eA*eG*eT*eG)", "Target Of Assay": "human ABCB11 mRNA", "Units": "fold change", "ABCB11 mRNA FC (5 μM ASO vs. UNT)": 1.092}
{"Substance": "CO-4060 (antisense eG*eG*eA*eGeT*eGeA*eGeA*eG*eG*e[5mC]*eA*eT*eT*eT*eA*eG*eG*eG)", "Target Of Assay": "human ABCB11 mRNA", "Units": "fold change", "ABCB11 mRNA FC (5 μM ASO vs. UNT)": 1.117}
{"Substance": "CO-4045 (antisense eA*e[5mC]*eT*eT*eT*eT*e[5mC]*eA*e[5mC]*eA*eA*e[5mC]*eT*eA*e[5mC]*eA*eG*eG*e[5mC]*e[5mC])", "Target Of Assay": "human ABCB11 mRNA", "Units": "fold change", "ABCB11 mRNA FC (5 μM ASO vs. UNT)": 0.815}
{"Substance": "CO-4515 (antisense eG*e[5mC]*e[5mC]*e[5mC]*eA*eA*eA*eT*eG*eA*eG*eG*eT*eG*eA*eT*eA*e[5mC]*eA*eA)", "Target Of Assay": "human ABCB11 mRNA", "Units": "fold change", "ABCB11 mRNA FC (5 μM ASO vs. UNT)": 0.978}
{"Substance": "CO-6999 (antisense eG*eT*lG*eA*lG*eG*l[5mC]*eA*lT*e[5mC]*lA*eG*lGeT*lA*eA*lG*eT*eT*e[5mC])", "Target Of Assay": "human ABCB11 mRNA", "Units": "fold change", "ABCB11 mRNA FC (5 μM ASO vs. UNT)": 1.24}
{"Substance": "CO-4498 (antisense eG*eT*e[5mC]*e[5mC]*e[5mC]*eT*eG*eT*eG*eG*eT*eT*eA*e[5mC]*e[5mC]*eT*eA*eA*eA*eG)", "Target Of Assay": "human ABCB11 mRNA", "Units": "fold change", "ABCB11 mRNA FC (5 μM ASO vs. UNT)": 0.934}
{"Substance": "CO-6981 (antisense eA*e[5mC]*eA*eG*eA*eA*eG*eT*eG*eA*eG*eG*e[5mC]*eA*eT*e[5mC]*eA*eG*eG*eT)", "Target Of Assay": "human ABCB11 mRNA", "Units": "fold change", "ABCB11 mRNA FC (5 μM ASO vs. UNT)": 1.164}
{"Substance": "CO-3994 (antisense e[5mC]*e[5mC]*e[5mC]*eA*e[5mC]*eT*e[5mC]*eT*eA*eG*eA*eT*eT*eG*e[5mC]*eA*eA*eG*e[5mC]*e[5mC])", "Target Of Assay": "human ABCB11 mRNA", "Units": "fold change", "ABCB11 mRNA FC (5 μM ASO vs. UNT)": 1.988}
{"Substance": "CO-6978 (antisense eG*eA*eG*eG*e[5mC]*eA*eT*e[5mC]*eA*eG*eG*eT*eA*eA*eG*eT*eT*e[5mC]*e[5mC]*eT)", "Target Of Assay": "human ABCB11 mRNA", "Units": "fold change", "ABCB11 mRNA FC (5 μM ASO vs. UNT)": 1.456}
{"Substance": "CO-7197 (eG*eG*eT*eG*eG*dA*dG*d[5mC]*eA*dA*dA*d[5mC]*dT*eA*dG*dG*d[5mC]*eA*e[5mC]*eT*eG*eA; antisense)", "Target Of Assay": "human ABCB11 mRNA", "Units": "fold change", "ABCB11 mRNA FC (5 μM ASO vs. UNT)": 1.364}
